- Tested on: wild oat
- methodNotes: Test B pre/postemergence wild oat
- Format: in vivo, Avena fatua
- details: Preemergence, Rate 250 g/ha; scale of 0 to 10 where 0 is no effect and 10 is complete control
Catalogue of Plant response rating, Wild oats readings, one per entry.
endpoint: Plant response rating, Wild oats

[
  {
    "querySmiles": "Cc1ccccc1Cn1c(=O)on(C(=O)N(c2ccc(F)cc2F)C(C)C)c1=O",
    "endpoint": "Plant response rating, Wild oats",
    "result": 4
  },
  {
    "querySmiles": "CCc1cccc(C)c1-n1c(=O)on(C(=O)N(c2ccc(F)cc2)C(C)C)c1=O",
    "endpoint": "Plant response rating, Wild oats",
    "result": 0
  },
  {
    "querySmiles": "CCN(CC)C(=O)n1oc(=O)n(Cc2cccs2)c1=O",
    "endpoint": "Plant response rating, Wild oats",
    "result": 0
  },
  {
    "querySmiles": "Cc1nn(C)c(Cl)c1-n1c(=O)on(C(=O)N(c2ccccc2)C(C)C)c1=O",
    "endpoint": "Plant response rating, Wild oats",
    "result": 5
  },
  {
    "querySmiles": "Cc1nn(C)c(Cl)c1-n1c(=O)on(C(=O)N(c2ccc(F)cc2F)C(C)C)c1=O",
    "endpoint": "Plant response rating, Wild oats",
    "result": 2
  },
  {
    "querySmiles": "Cc1cccc(C)c1-n1c(=O)on(C(=O)N(c2ccc(F)cc2)C(C)C)c1=O",
    "endpoint": "Plant response rating, Wild oats",
    "result": 0
  },
  {
    "querySmiles": "CCN(C(=O)n1oc(=O)n(-c2c(C)cccc2C)c1=O)C1CCCCC1",
    "endpoint": "Plant response rating, Wild oats",
    "result": 0
  },
  {
    "querySmiles": "Cc1ccccc1-n1c(=O)on(C(=O)N(c2ccc([N+](=O)[O-])cc2)C(C)C)c1=O",
    "endpoint": "Plant response rating, Wild oats",
    "result": 0
  },
  {
    "querySmiles": "CC(C)N(C(=O)n1oc(=O)n(C2CCCCC2)c1=O)c1ccc(F)cc1F",
    "endpoint": "Plant response rating, Wild oats",
    "result": 0
  },
  {
    "querySmiles": "Cc1ccccc1-n1c(=O)on(C(=O)N(c2cc(F)cc(F)c2)C(C)C)c1=O",
    "endpoint": "Plant response rating, Wild oats",
    "result": 0
  }
]
